Biological target: 3',5'-cyclic-AMP phosphodiesterase 4B (Homo sapiens, UniProt Q07343)
Sequence (Q07343 whole entry): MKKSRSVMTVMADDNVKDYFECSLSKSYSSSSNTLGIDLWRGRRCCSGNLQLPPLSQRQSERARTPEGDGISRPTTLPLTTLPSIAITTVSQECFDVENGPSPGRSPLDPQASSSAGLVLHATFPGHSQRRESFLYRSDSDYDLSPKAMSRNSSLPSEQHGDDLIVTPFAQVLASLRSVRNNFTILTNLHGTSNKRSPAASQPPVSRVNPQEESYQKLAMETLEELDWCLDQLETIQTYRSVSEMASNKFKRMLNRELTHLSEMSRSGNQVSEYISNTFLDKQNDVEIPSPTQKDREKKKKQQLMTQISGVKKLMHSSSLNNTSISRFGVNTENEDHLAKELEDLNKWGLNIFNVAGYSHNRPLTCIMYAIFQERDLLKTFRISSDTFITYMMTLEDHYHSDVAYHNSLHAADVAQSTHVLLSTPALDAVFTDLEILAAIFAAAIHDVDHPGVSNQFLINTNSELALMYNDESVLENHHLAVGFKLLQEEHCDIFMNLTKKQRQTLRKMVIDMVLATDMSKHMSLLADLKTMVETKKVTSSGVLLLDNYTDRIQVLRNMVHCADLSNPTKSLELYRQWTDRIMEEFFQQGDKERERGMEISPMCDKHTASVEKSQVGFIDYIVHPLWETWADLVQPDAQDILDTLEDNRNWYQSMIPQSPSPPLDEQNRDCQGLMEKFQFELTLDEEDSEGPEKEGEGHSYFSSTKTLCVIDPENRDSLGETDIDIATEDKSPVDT
Experiment: Inhibition of recombinant His-tagged PDE4B (unknown origin) expressed in Sf9 cells using cAMP as substrate at 30 uM incubated for 15 mins prior to substrate addition measured after 1 hr by luminescence-based assay
endpoint label: inhibition (%)
Report as a plain number; the unit % is understood.

Any idea what inhibition was measured for CCOC(=O)C1=CN(c2ccc(OC)cc2)C=C(C(=O)OCC)C1c1cccc(Br)c1 ?
42

Any idea what inhibition was measured for CCOC(=O)C1=CN(c2ccccc2OC)C=C(C(=O)OCC)C1c1ccc(F)c(F)c1 ?
46

Any idea what inhibition was measured for CCOC(=O)C1=CN(c2ccccc2OC)C=C(C(=O)OCC)C1c1ccccc1 ?
29.9

Any idea what inhibition was measured for CCOC(=O)C1=CN(c2ccccc2OC)C=C(C(=O)OCC)C1c1ccc(Br)cc1 ?
78.4

Any idea what inhibition was measured for CCOC(=O)C1=CN(c2ccccc2OC)C=C(C(=O)OCC)C1c1cccc(Cl)c1 ?
30.4

====

Target: 3',5'-cyclic-AMP phosphodiesterase 4B (Homo sapiens)
Test: Inhibition of recombinant His-tagged PDE4B (unknown origin) expressed in Sf9 cells using cAMP as substrate at 30 uM incubated for 15 mins prior to substrate addition measured after 1 hr by luminescence-based assay
endpoint label: inhibition
Answer with the value and then the unit.

Any idea what inhibition was measured for CCOC(=O)C1=CN(c2ccc(OC)cc2)C=C(C(=O)OCC)C1c1ccc(F)cc1 ?
40.2%

Any idea what inhibition was measured for CCOC(=O)C1=CN(c2ccc(OC)cc2)C=C(C(=O)OCC)C1c1ccccc1 ?
39.3%

Any idea what inhibition was measured for CCOC(=O)C1=CN(c2ccc(OC)cc2)C=C(C(=O)OCC)C1c1ccc(F)c(F)c1 ?
78.7%

Any idea what inhibition was measured for CCOC(=O)C1=CN(c2ccc(OC)cc2OC)C=C(C(=O)OCC)C1c1ccc(F)c(F)c1 ?
69.2%

Any idea what inhibition was measured for CCOC(=O)C1=CN(c2ccccc2OC)C=C(C(=O)OCC)C1c1ccc(F)cc1 ?
33.4%

Any idea what inhibition was measured for CCOC(=O)C1=CN(c2ccc(OC)cc2)C=C(C(=O)OCC)C1c1ccc(Br)cc1 ?
35.1%

Any idea what inhibition was measured for CCOC(=O)C1=CN(c2cccc(Cl)c2)C=C(C(=O)OCC)C1c1ccc(F)cc1 ?
44.2%

Any idea what inhibition was measured for CCOC(=O)C1=CN(c2ccccc2OC)C=C(C(=O)OCC)C1c1ccc(OC)cc1 ?
59.2%

Any idea what inhibition was measured for CCOC(=O)C1=CN(c2ccccc2OC)C=C(C(=O)OCC)C1c1cccc(Br)c1 ?
37.3%
